All figures here come from patent EP2100620A1.

Target: HLA receptor A1 (HLA-A*0101), purified from transfected human cells (human)
Experiment: competitive binding assay: unlabeled test peptide against 5 nM 125I-labeled standard peptide on purified HLA with 1 uM b2m, size exclusion HPLC, 51 h incubation
Details: remark: other sources report otherwise

binder: ISEYRHYCY (modifications not checked) [… (SEQ ID NO:70), HPV 16 E6 peptide]
IC50, nM: 49
